- Test system: FMC63
- Sequence (as listed by the source): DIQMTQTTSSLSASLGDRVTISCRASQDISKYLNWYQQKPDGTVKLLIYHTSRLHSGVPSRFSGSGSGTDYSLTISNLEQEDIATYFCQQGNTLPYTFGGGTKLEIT
- Sequence (as listed by the source): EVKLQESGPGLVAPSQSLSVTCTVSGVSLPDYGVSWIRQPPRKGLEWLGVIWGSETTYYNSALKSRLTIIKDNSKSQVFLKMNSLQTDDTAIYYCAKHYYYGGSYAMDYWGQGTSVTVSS
- assay.explanation: CD19 variant binding to anti-CD19 antibody FMC63 (score)
- setup.conditions: Table 1A, CD19 single mutants (positions of SEQ ID NO:2)
property.name: FMC63 Binding Score

Incoming: // query FMC63 Binding Score value for entry W262P: CD19 variant (protein) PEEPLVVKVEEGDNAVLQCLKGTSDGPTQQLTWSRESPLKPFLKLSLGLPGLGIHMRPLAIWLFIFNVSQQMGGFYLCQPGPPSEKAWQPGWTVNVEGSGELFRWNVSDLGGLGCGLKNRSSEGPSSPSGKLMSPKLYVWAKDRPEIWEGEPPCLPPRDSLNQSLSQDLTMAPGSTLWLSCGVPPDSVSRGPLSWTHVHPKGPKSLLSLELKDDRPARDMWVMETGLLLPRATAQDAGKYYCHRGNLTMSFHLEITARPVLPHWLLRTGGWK
Outgoing: 7.4 ± .7
